Target: UniProt P07550
Sequence (P07550 whole entry): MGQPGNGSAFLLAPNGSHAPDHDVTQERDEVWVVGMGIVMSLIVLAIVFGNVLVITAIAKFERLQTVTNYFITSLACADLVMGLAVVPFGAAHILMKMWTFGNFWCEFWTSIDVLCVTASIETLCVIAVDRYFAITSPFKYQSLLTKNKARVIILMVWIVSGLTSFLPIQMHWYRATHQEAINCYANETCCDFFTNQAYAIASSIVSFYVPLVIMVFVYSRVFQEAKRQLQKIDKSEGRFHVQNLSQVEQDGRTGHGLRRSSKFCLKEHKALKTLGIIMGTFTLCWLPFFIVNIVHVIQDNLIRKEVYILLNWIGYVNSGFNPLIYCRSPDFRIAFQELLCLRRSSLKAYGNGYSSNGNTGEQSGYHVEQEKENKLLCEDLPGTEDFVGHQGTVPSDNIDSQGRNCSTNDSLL
Assay: Binding affinity to beta2 adrenoceptor (unknown origin)
measurement_kind: pKi
Please keep in mind that pKi is minus log10 of the molar concentration; only the number is needed.

In: What does the record list as pKi for Cc1ccc(CN(CC(O)COc2cccc3[nH]ccc23)C(C)(C)C)cc1 (stereo unspecified) ?
Out: 5.89

----------
Test: Inhibition of glucagon-induced glucose secretion in C57BL/6 mouse primary hepatocytes at 1 uM
Assay type: functional
Conditions: C57BL/6, Hepatocyte
Listing: inhibition at 1 µM of selected molecules
Answer format: numeric, % implied, no suffix.

These recorded examples may help you get a feel for the data.
> print(dat)
                                   molecule  reported.result
1  CC(C)(C)NCC(O)COc1cccc2[nH]ccc12 (stereo unspecified)               53
2  Cc1ccc(CNCC(O)COc2cccc3[nH]ccc23)cc1 (stereo unspecified)             34.5
3  Cc1ccc(CN(CC(O)COc2ccc3[nH]ccc3c2)C(C)(C)C)cc1 (stereo unspecified)             50.7
4  COC(COc1cccc2[nH]ccc12)CN(Cc1ccc(C)cc1)C(C)(C)C (stereo unspecified)              135
5  Cc1ccccc1CN(CC(O)COc1cccc2[nH]ccc12)C(C)(C)C (stereo unspecified)               46
6  COC(COc1cccc2[nH]ccc12)CN(CC1CCCC1)C(C)(C)C (stereo unspecified)             66.4

In: What does the record list as inhibition at 1 µM for Cc1ccc(CN(CC(O)CNc2ccc3[nH]ccc3c2)C(C)(C)C)cc1 (stereo unspecified) ?
Out: 28.2

In: What does the record list as inhibition at 1 µM for Cc1ccc(CN(CC(O)COc2cccc3[nH]ccc23)C(C)(C)C)cc1 (stereo unspecified) ?
Out: 57.7
